system: CAKI-1 renal; test: NCI-60 one-dose screen, 48 h (100 = growth as untreated, 0 = no growth, -100 = all killed); details: 10 µM unless noted
This is part of a sample that, as a whole, favours compounds with a hit. Of some 83,000 tested, about 20% had one in any assay.
Each entry gets no (0) if its growth stays under 70%, and yes (1) if its growth is 70% or above.

As a guide, the following entries are already answered.
## Input Does growth meet or surpass 70% for NS(=O)(=O)c1ccc(CCn2c(-c3ccc(C(=O)O)cc3)nc(-c3ccccc3)c2-c2ccccc2)cc1 ?
## Output yes (1)

## Input # repeat for N#C/C(=N\Nc1ccc(F)cc1)C(=O)Nc1cc(-c2ccccc2)nn1-c1ccccc1
## Output no (0)

## Input # repeat for NCCNC(=O)c1cccc(COc2ccccc2NC(=O)c2cc(Br)c(Br)[nH]2)c1
## Output yes (1)

Others:
## Input Does growth meet or surpass 70% for COCCOc1ccc2ncc(C#Cc3cncc(C(=O)Nc4ccc(CN5CCN(C)CC5)c(C(F)(F)F)c4)c3)n2n1 ?
## Output no (0)

## Input # repeat for O=S(=O)(NCCCNc1nccc(-c2[nH]c(-c3ccccc3)nc2-c2ccc(F)c(O)c2)n1)c1ccc(C(F)(F)F)cc1
## Output no (0)

## Input # repeat for CC(C)Sc1nc(-c2ccccc2)c(C#N)c(N2CCOCC2)n1
## Output no (0)

## Input # repeat for CCCNNC(=O)c1ccc(-c2ccc(NC(=O)CCCCCCC(=O)N[C@H](C(=O)N3C[C@H](O)C[C@H]3C(=O)N[C@@H](C)c3ccc(-c4scnc4C)cc3)C(C)(C)C)cc2)cc1
## Output no (0)

## Input # repeat for C/C(=N\NC(=O)/C=C/CC(=O)O)c1nnn(-c2ccc([N+](=O)[O-])cc2)c1C
## Output yes (1)

## Input # repeat for CCN(CC)c1ccc(/C=N/NC(=O)c2ccc(S(N)(=O)=O)cc2)c(O)c1
## Output no (0)

## Input # repeat for CCCC/C(=C\c1ccc(O)c(O)c1)C(=O)NC(Cc1ccccc1)C(=O)C(=O)NCCc1ccc(OC)cc1 (configuration not stated)
## Output yes (1)

## Input # repeat for CNC(=O)Nc1ccc(Nc2cc(-c3ccc(-n4cccn4)cc3)[nH]n2)c(C)c1
## Output yes (1)

## Input # repeat for CC1=C(C)C(=O)C(Nc2cccc(C(F)(F)F)c2)=C(Br)C1=O
## Output yes (1)

## Input # repeat for CC(=O)Nc1nc(C)c(-c2csc(Nc3ccccc3)n2)s1
## Output no (0)

## Input # repeat for Cc1cc(Br)ccc1-n1cc(C#N)c(N)c1C(=O)c1ccc(Br)cc1
## Output yes (1)

## Input # repeat for CN1CCN(c2ccc(Nc3nc(NCCCNS(=O)(=O)c4cccc5ccccc45)c4sccc4n3)cc2)CC1
## Output no (0)

## Input # repeat for CNC(=O)c1cc(Oc2ccc3c(c2)sc2nc(-c4ccc(N(C)C)cc4)cn23)ccn1
## Output no (0)

## Input # repeat for Cc1ccc2c(n1)C(=O)C(Cl)=C(Nc1cccc(C)c1C)C2=O
## Output no (0)

## Input # repeat for Cc1csc(/N=C(N)/N=C(\N)c2cccnc2)n1
## Output no (0)
